assay: Plasma protein binding, equilibrium dialysis, summary over species; format: in vitro ADME; details: human, mouse, rat
ASSAY METRIC: fraction unbound at 6 h, 1 μM

[[record]]
compound_structure_string = "O=[N+]([O-])c1ccc(CNc2nc(NCc3cccc(C(F)(F)F)c3)nc3[nH]cnc23)cc1"
value = "0.07 to 0.1"


---

test: Plasma and tissue availability after a single intraperitoneal TNP injection; format: in vivo, mice; conditions: mouse, plasma, ip, 20 mg/kg
ASSAY METRIC: half-life

[[record]]
compound_structure_string = "O=[N+]([O-])c1ccc(CNc2nc(NCc3cccc(C(F)(F)F)c3)nc3[nH]cnc23)cc1"
value = "~6 h"


Ref: paper PMC5034689
